Tested on: ICR mice
Assay: Acute toxicity test
Type: in vivo
Conditions: female, 270 mg/kg i.p.
measured endpoint: Number of dead mice, 2nd day

Incoming: Could you please provide reported Number of dead mice, 2nd day for O=C1[O][Pt-2]2([NH2+]CC3OCOC3C[NH2+]2)[O]C(=O)C12CCC2 (stereo not shown) ? Thanks!
Outgoing: 4/6

Incoming: Quote Number of dead mice, 2nd day reported for CC1OC2C[NH2+][Pt-2]3([NH2+]CC2O1)[O]C(=O)C1(CCC1)C(=O)[O]3 (stereo not shown) please.
Outgoing: 4/6

Incoming: Specify measured Number of dead mice, 2nd day for CCC1OC2C[NH2+][Pt-2]3([NH2+]CC2O1)[O]C(=O)C1(CCC1)C(=O)[O]3 (stereo not shown) .
Outgoing: 1/6

Incoming: Please give the documented Number of dead mice, 2nd day of O=C1[O][Pt-2]2([NH2+]CC3OC4(CCCC4)OC3C[NH2+]2)[O]C(=O)C12CCC2 (stereo not shown)
Outgoing: 4/6

----------
Exercise: state measured Lethality for each of the compounds provided.
Tested on: ICR mice
Experiment: Acute toxicity test
Type: in vivo
Set-up: unit not given here
Settings: female, 55.0 mg/kg i.p.; 10080 min
Returns: the value as a bare number; no unit string appended.

Incoming: Write Lethality of NC[C@H]1OC2(CCCC2)O[C@@H]1CN.O=C1C[O][Pt][O]1 ; system used: ICR mice
Outgoing: 83.2

Incoming: Give measured Lethality for CC1(C)O[C@H](CN)[C@@H](CN)O1.O=C1C[O][Pt][O]1 (ICR mice).
Outgoing: 100.0

Incoming: Name the value of Lethality reported for CCC1O[C@H](CN)[C@@H](CN)O1.O=C1C[O][Pt][O]1 when tested on ICR mice.
Outgoing: 83.3

Incoming: Report Lethality from ICR mice testing of NC[C@H]1OC2(CCCCC2)O[C@@H]1CN.O=C1C[O][Pt][O]1
Outgoing: 33.3

Incoming: State Lethality on ICR mice. Entry: CC(C)C1O[C@H](CN)[C@@H](CN)O1.O=C1C[O][Pt][O]1
Outgoing: 33.3

----------
System: ICR mice
Experiment: Acute toxicity test
Type: in vivo
Conditions: male, 55.0 mg/kg i.p.
measured endpoint: Number of dead mice for 7 days

Incoming: Respond only with Number of dead mice for 7 days recorded for NC[C@H]1OC2(CCCCC2)O[C@@H]1CN.O=C1C[O][Pt][O]1
Outgoing: 3/6

Incoming: // fetch Number of dead mice for 7 days given entry CC1(C)O[C@H](CN)[C@@H](CN)O1.O=C1C[O][Pt][O]1
Outgoing: 6/6

Incoming: Quote Number of dead mice for 7 days reported for CCC1O[C@H](CN)[C@@H](CN)O1.O=C1C[O][Pt][O]1 please.
Outgoing: 6/6

Incoming: Input CC(C)C1O[C@H](CN)[C@@H](CN)O1.O=C1C[O][Pt][O]1 , output reported Number of dead mice for 7 days.
Outgoing: 2/6

Incoming: Input NC[C@H]1OC2(CCCC2)O[C@@H]1CN.O=C1C[O][Pt][O]1 , output reported Number of dead mice for 7 days.
Outgoing: 6/6

----------
Provide the reported Number of dead mice, 1st day of each item.
Test system: ICR mice
Assay: Acute toxicity test
Assay type: in vivo
Conditions: male, 91.8 mg/kg i.p.

Incoming: Report measured Number of dead mice, 1st day on ICR mice; entry: CC(C)C1OC(CN)C(CN)O1.CC1[O][Pt][O]C1=O (centres unmarked)
Outgoing: 0/6

Incoming: // fetch Number of dead mice, 1st day for CC1[O][Pt][O]C1=O.CCC1OC(CN)C(CN)O1 (centres unmarked) ; system: ICR mice
Outgoing: 0/6

Incoming: Recall the reported Number of dead mice, 1st day of CC1[O][Pt][O]C1=O.NCC1OC2(CCCC2)OC1CN (centres unmarked) when tested on ICR mice.
Outgoing: 0/6

Incoming: Send back ICR mice Number of dead mice, 1st day of CCC1(C)OC2C[NH2+][Pt-2]3([NH2+]CC2O1)[O]CC(=O)[O]3 (centres unmarked) only.
Outgoing: 0/6

Incoming: Look up and report measured Number of dead mice, 1st day (ICR mice) for the following molecule: CCC1(CC)OC2C[NH2+][Pt-2]3([NH2+]CC2O1)[O]CC(=O)[O]3 (centres unmarked)
Outgoing: 0/6

----------
Experiment: Test for water solubility
Format: physicochemical
Details: water
Give Solubility in water for every item shown.
Give the number; µg/mL is assumed, so skip it.

Incoming: Please report the measured Solubility in water for NC[C@H]1OC2(CCCC2)O[C@@H]1CN.O=C1C[O][Pt][O]1
Outgoing: 5800

Incoming: Indicate the recorded Solubility in water value for this molecule: CCC1OC2C[NH2+][Pt-2]3([NH2+]CC2O1)[O]C(=O)C(CC)C(=O)[O]3 (centres unmarked)
Outgoing: 7900

Incoming: State, in one line, measured Solubility in water of CC(C)(C)C1OC2C[NH2+][Pt-2]3([NH2+]CC2O1)[O]CC(=O)[O]3 (centres unmarked)
Outgoing: 2100

Incoming: Report Solubility in water, nothing else, for this molecule: CC1[O][Pt][O]C1=O.NCC1OC2(CCCCC2)OC1CN (centres unmarked)
Outgoing: 3800

Incoming: Supply reported Solubility in water belonging to this molecule: CC1OC2C[NH2+][Pt-2]3([NH2+]CC2O1)[O]C(=O)C1(CCC1)C(=O)[O]3 (centres unmarked)
Outgoing: 24900

Incoming: Indicate the recorded Solubility in water value for this molecule: NC[C@H]1OC2(CCCCC2)O[C@@H]1CN.O=C1C[O][Pt][O]1
Outgoing: 2900

Incoming: Return value of Solubility in water for input CC(C)C1OC2C[NH2+][Pt-2]3([NH2+]CC2O1)[O]C(=O)C1(CCC1)C(=O)[O]3 (centres unmarked) , no commentary.
Outgoing: 2100

Incoming: Provide only the value of recorded Solubility in water for N.N.O=C([O-])C1(C(=O)[O-])CCC1.[Pt+2] [carboplatin, reference compound]
Outgoing: 10000

Incoming: Quote Solubility in water reported for O=C1[O][Pt-2]2([NH2+]CC3OCOC3C[NH2+]2)[O]C(=O)C12CCC2 (centres unmarked) please.
Outgoing: 3100

Incoming: Specify Solubility in water for CCC1OC2C[NH2+][Pt-2]3([NH2+]CC2O1)[O]C(=O)C1(CCC1)C(=O)[O]3 (centres unmarked) and stop.
Outgoing: 12000

Incoming: Recall and state the measured Solubility in water for CC1(C)OC2C[NH2+][Pt-2]3([NH2+]CC2O1)[O]C(=O)C1(CCC1)C(=O)[O]3 (centres unmarked) [Example 26] .
Outgoing: 2000

Incoming: Report Solubility in water for CC(C)CC1OC2C[NH2+][Pt-2]3([NH2+]CC2O1)[O]CC(=O)[O]3 (centres unmarked)
Outgoing: 4600

Incoming: Identify measured Solubility in water corresponding to CCC1C(=O)[O][Pt]2([NH]C[C@H]3OC4(CCCC4)O[C@@H]3C[NH]2)[O]C1=O (some centres unmarked)
Outgoing: 2700

Incoming: Please report the measured Solubility in water for O=C1[O][Pt-2]2([NH2+]CC3OC4(CCCC4)OC3C[NH2+]2)[O]C(=O)C12CCC2 (centres unmarked) [Example 31]
Outgoing: 1900

Incoming: Assign Solubility in water to the following record: O=C1[O][Pt-2]2([NH2+]CC3OC4(CCCC4)OC3C[NH2+]2)[O]C(=O)C12CCC2 (centres unmarked) [Example 30]
Outgoing: 1900

----------
Please respond with reported Number of dead mice, 3rd day for every item in the list.
System: ICR mice
Assay: Acute toxicity test
Type: in vivo
Settings: male, 270 mg/kg i.p.

Incoming: Provide Number of dead mice, 3rd day value for the following molecule: CC1OC2C[NH2+][Pt-2]3([NH2+]CC2O1)[O]C(=O)C1(CCC1)C(=O)[O]3 (stereo not shown) [Example 22]
Outgoing: 4/4

Incoming: Determine its reported Number of dead mice, 3rd day: O=C1[O][Pt-2]2([NH2+]CC3OCOC3C[NH2+]2)[O]C(=O)C12CCC2 (stereo not shown) [Example 20]
Outgoing: 2/2

Incoming: Give a short answer stating reported Number of dead mice, 3rd day for O=C1[O][Pt-2]2([NH2+]CC3OC4(CCCC4)OC3C[NH2+]2)[O]C(=O)C12CCC2 (stereo not shown) [Example 30] .
Outgoing: 4/4

Incoming: Read off the recorded Number of dead mice, 3rd day for CCC1OC2C[NH2+][Pt-2]3([NH2+]CC2O1)[O]C(=O)C1(CCC1)C(=O)[O]3 (stereo not shown) [Example 24]
Outgoing: 2/5

----------
Tested on: murine leukemia L1210
Experiment: Antitumor activity test on murine leukemia L1210 in vivo
Parameters: species or system male BDF1 mice
Conditions: 6.2 mg/kg i.p., days 1, 5, 9
measured endpoint: T/C (%)
Respond numerically; units are % and should not be typed.

Incoming: Name the recorded T/C (%) of CC1O[C@H](CN)[C@@H](CN)O1.O=C1C[O][Pt][O]1 , assay system murine leukemia L1210.
Outgoing: 136

Incoming: Report T/C (%) on murine leukemia L1210 for this entry: CCC1OC2C[NH2+][Pt-2]3([NH2+]CC2O1)[O]C(=O)C1(CCC1)C(=O)[O]3 (centres unmarked)
Outgoing: 122

Incoming: Under murine leukemia L1210: report T/C (%) of O=C1[O][Pt-2]2([NH2+]CC3OC4(CCCC4)OC3C[NH2+]2)[O]C(=O)C12CCC2 (centres unmarked) [Example 30] .
Outgoing: 109

Incoming: Enter recorded T/C (%) with murine leukemia L1210 for CC1OC2C[NH2+][Pt-2]3([NH2+]CC2O1)[O]C(=O)C1(CCC1)C(=O)[O]3 (centres unmarked) [Example 23] here.
Outgoing: 108

Incoming: Fetch value of T/C (%) on murine leukemia L1210 for N.N.[Cl][Pt][Cl] [cisplatin, cis-dichlorodiammineplatinum(II), reference compound] .
Outgoing: 82

Incoming: Lab note: record T/C (%) of CC(C)C1OC2C[NH2+][Pt-2]3([NH2+]CC2O1)[O]C(=O)C1(CCC1)C(=O)[O]3 (centres unmarked) tested on murine leukemia L1210.
Outgoing: 113

Incoming: Answer with T/C (%) of CC(C)C1O[C@H](CN)[C@@H](CN)O1.O=C1C[O][Pt][O]1 measured for murine leukemia L1210.
Outgoing: 166

Incoming: Look up murine leukemia L1210 data: T/C (%) of CCCC1OC2C[NH2+][Pt-2]3([NH2+]CC2O1)[O]CC(=O)[O]3 (centres unmarked) , then report it.
Outgoing: 161
